- Test system: hyperlipidémie provoquée par l'administration de TRITON®
- ASSAY_PROCEDURE: Triton test: hyperlipidemia induced by i.v. TRITON W.R. in fasted rats
- Format: in vivo, rats WISTAR mâles
- CONDITION_INFO: 250 mg/kg oral; ratio to clofibrate of the same series
ENDPOINT_LABEL: Lipides totaux Score (par rapport au clofibrate compté pour 1)

- CCC(CO)NS(=O)(=O)c1cc(N)ccc1OC (stereo not shown): 3,61
- COc1cc([N+](=O)[O-])c(Cl)cc1S(=O)(=O)NCCO: 0,25
- COc1ccc([N+](=O)[O-])cc1S(=O)(=O)N(C)CCO: 0,53
- COc1cc([N+](=O)[O-])ccc1S(=O)(=O)NCC(C)O (stereo not shown): 1,55
- COc1cc([N+](=O)[O-])c(Cl)cc1S(=O)(=O)N(C)CCO: 0,84
- CCOC(=O)C(C)(C)Oc1ccc(Cl)cc1 [Clofibrate]: 1,00
- COc1ccc(Cl)cc1S(=O)(=O)N(C)CCO: 0,58
- COc1cc([N+](=O)[O-])ccc1S(=O)(=O)N(C)CCO: 0,06
- CCC(CO)NS(=O)(=O)c1cc([N+](=O)[O-])ccc1OC (stereo not shown): 1,02
- CCC(CO)NS(=O)(=O)c1cc(Br)ccc1OC (stereo not shown): 3,62
